biological target: human GABA A α5 receptor (α5β3γ2) (Homo sapiens, UniProt P18507+P31644); construct: membranes prepared from cell pellets; assay: [3H]flumazenil competition binding assay, HEK293 cells expressing human receptors; details: displacement of [3H]flumazenil (0.5 nM); HEK293 cells transiently expressing human α5β3γ2; means of two determinations; read-out: hKi GABA A α5
Endpoint: Ki (nM)

In [3]: df
Out[3]:
                                   compound  endpoint  recorded_measurement
0  CCCCc1noc(C)c1/C=C/c1ccc(C(=O)NC(C)CO)cn1 (stereo not drawn) [Example 10]        Ki                   8.2
1  Cc1onc(-c2ccccc2)c1/C=C/c1ccc(C(=O)NC(C)CO)cn1 (stereo not drawn) [Example 5]        Ki                   2.9

P: CCCCc1noc(C)c1/C=C/c1ccc(C(=O)N[C@H](C)CO)cn1 [Example 13]
Q: Cc1onc(-c2ccccc2)c1CCc1ccc(C(=O)NC(C)C)cn1 [Example 16]
Query: Identify the entry with the smaller Ki: P or Q . Return value: the label identifying the chosen record.
Response: P
(P: 12.2 nM, Q: 57.6 nM)

I: Cc1onc(-c2ccccc2)c1/C=C/c1ccc(C(=O)NCCO)cn1 [Example 4]
II: COC(=O)c1ccc(/C=C/c2c(-c3ccccc3)noc2C)nc1 [Example 1]
Query: Field: lower recorded Ki (choose I or II ) Returns: label corresponding to the selected item.
Response: I

P: CCCCc1noc(C)c1/C=C/c1ccc(C(=O)N[C@@H](C)CO)cn1 [Example 14]
Q: Cc1onc(-c2ccccc2)c1/C=C/c1ccc(C(=O)O)cn1 [Example 6]
Query: Which has the higher Ki, P or Q ? Indicate which entry you chose by stating its label.
Response: Q
(Q: 38.6 nM, P: 14.1 nM)

A: Cc1onc(-c2ccccc2)c1/C=C/c1ccc(C(=O)NC2CCOCC2)cn1 [Example 3]
B: CCCCc1noc(C)c1/C=C/c1ccc(C(=O)NC2CCOCC2)cn1 [Example 12]
C: CCCCc1noc(C)c1CCc1ccc(C(=O)NC2CCOC2)cn1 (stereo not drawn) [Example 18]
D: CCCCc1noc(C)c1/C=C/c1ccc(C(=O)NC(C)C)cn1 [Example 8]
Query: Hi! Can you put these in order of Ki, lowest number first? The reply should contain the labels ordered as requested.
Response: A, B, D, C
(A: 6 nM, B: 12.9 nM, D: 18.6 nM, C: 58.6 nM)

I: CCCCc1noc(C)c1/C=C/c1ccc(C(=O)NC(CO)CO)cn1 [Example 15]
II: CCCCc1noc(C)c1/C=C/c1ccc(C(=O)NCC(C)(C)O)cn1 [Example 11]
Query: For the two items I and II , which reports the higher Ki value? When you have decided, please share the label of that item.
Response: II

I: Cc1onc(-c2ccccc2)c1/C=C/c1ccc(C(=O)NC(C)C)cn1 [Example 2]
II: CCCCc1noc(C)c1/C=C/c1ccc(C(=O)OC)cn1 [Example 7]
III: CCCCc1noc(C)c1CCc1ccc(C(=O)NC(C)CO)cn1 (stereo not drawn) [Example 17]
Query: Rank the items in ascending order with respect to Ki. Form field (ranking): labels in requested order.
Response: I, II, III
